Hello, the source for this data is paper PMC5426849, in case you need it.

- target.or.system: Nck1 SH2 domain, monomeric, cleaved from GST (human, UniProt P16333 282-376)
- test.protocol: fluorescence polarisation
Non-standard residues stand in square brackets, D forms with d. No end group written: not given here. Flu = 5-carboxyfluorescein, coupled after removal of the final Fmoc group; pY = N[C@@H](Cc1ccc(OP(=O)(O)O)cc1)C(=O)O
metric.name: Kd

>>> df
                                     binder  assay_value
0  Flu-EDDT[pY]DGYE [fluoresceinated cortactin phospho-Y482 peptide]       > 5 µM
